Each recorded value in this set is attributed to the supplement of paper PMC7125110.

B1: glmS ribozyme (parent)
chain: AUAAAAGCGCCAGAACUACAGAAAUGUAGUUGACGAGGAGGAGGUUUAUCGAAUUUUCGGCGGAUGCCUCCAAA

- Variants of: B1
- protocol_description: self-cleavage kobs at 40 uM GlcN6P; higher = faster cleavage; RNA array
- assay_setup: with glucosamine-6-phosphate
This sample holds only a part of the variants without activity.
result_type: self-cleavage kobs at 40 uM GlcN6P (s⁻¹)
Give just the number in s⁻¹; leave the unit off.

Take a look at these entries with their results.
AUAAAAGCGCCAGAACUACAGAAAUGUAGGAGACGAGGAGGAGGUUUAUCGAAUUUUCGGCGGAUGCCUCCAAA [U30G U31A]	0.000631
AUAAAAGCGCCUGGACUACAGAAAUGUAAUUGACGAGGAGGAGGUUUAUCGAAUUUUCGGCGGAUGCCUCCAAA [A12U A14G G29A]	0.00101
AUAAAAGCGCCCGAACUACAGAAAUGUAUUUGACGAGGAGGAGGUUUAUCGAAUUUUCGGCGGAUGCCUCCAAA [A12C G29U]	0.000186
AUAAAAGCGCCAGACCUACAGAAAUGUAGUUGACGAGGAGGAGGUUUAUCGAAUCUUCGGCGGAUGCCUCCAAA [A15C U55C]	0.000138
AUAAAAGCGCCCGAUCUACAGAAAUGUAGUUGACGAGGAGGAGGUUUAUCGAAUUUUCGGCGGAUGCCUCCAAA [A12C A15U]	7.96e-05
AUAAAAGCGCCAGAACUACAGAAAUGUAGUUGACGAGGCGGAGGUUUAUCGAAUUUUCGGCGGAUACCUCCAAA [A39C G66A]	7.75e-05
AUAAAAGCGCCAGAACUACAGAAAUGUAGAAGACGAGGAGGAGGUUUAUCGAAUUUUCGGCGGAUGCCUCCAAA [U30A U31A]	0.000419
AUAAAAGCGCCAGAACUACAGAAAUGUAGUUGACGAAGAGGAGGUUAAUCGAAUUUUCGGCGGAUGCCUCCAAA [G37A U47A]	4.6e-05

Looking up AUAAAAGCGCCAGAACUACAGAAAUGUAGUUGACGAGGAGGAGGUUUAUCGAAUUUUCGGCGGAUGCCCCUAAA [U69C C71U] , I found its self-cleavage kobs at 40 uM GlcN6P recorded as 5.8e-05

Briefly, self-cleavage kobs at 40 uM GlcN6P measured for AUAAAAGCGCCAGAACUACAGAAAUGUAGUCGACGAGGCGGAGGUUUAUCGAAUUUUCGGCGGAUGCCUCCAAA [U31C A39C] : 3.17e-05

Entry AUAAAAGCGCCAGAACUACAGAAAUGUAGGUGACGAGGAGGAGGUUUAUCGAAUUUUCGGCGGGUGCCUCCAAA [U30G A64G] , self-cleavage kobs at 40 uM GlcN6P reported as 0.000178

Field self-cleavage kobs at 40 uM GlcN6P (entry AUAAAAGCGCCAGGACUACAGAAAUGUAGUUGACGAGGAGGAGGUUUAUCGAAUUUUCGGCGGAUGCCACCAAA [A14G U69A] ) reads 0.000118

Record AUAAAAGCGCCAGACCUACAGAAAUGUAGUUGACGAGGAGGAGGUUUAUGGAAUUUUCGGCUGAUGCCUCCAAA [A15C C50G G62U] . Reported self-cleavage kobs at 40 uM GlcN6P: 4.56e-05
